# Tested on: MDA-MB-468 breast
# assay-summary: NCI tumour cell line growth inhibition, 48 h
Exercise: for every item that follows, state its recorded TGI.
Give bare numbers, in µM.

Worked examples, 3 molecules total:
O=C(NNc1nc2cc(F)ccc2n2c(CN3CC4(COC4)C3)ccc12)c1cnccn1    1.24
COc1ccc(-c2nc3cc(C)ccc3n2CC(=O)N=Nc2c(O)[nH]c3ccccc23)cc1    5.87
CS(=O)(=O)c1ccc(C(F)(F)F)cc1NC(=O)Nc1cnc(Oc2ccc(-c3cc(Cl)cnc3N)cc2)nc1    7

I would be grateful if you could provide TGI for each of the following entries.
1. Cc1oc2c(c1C(=O)c1ccccc1)C(=O)c1ccccc1C2=O
2. NC(=O)c1c(OCc2c(F)cc(Br)cc2F)nsc1NC(=O)NCCCCN1CCCC1

1. 3.26
2. 3.18
